We begin with a simple list: items and their reported MIC.
# Test system: Escherichia coli
# ASSAY_METHOD_TEXT: Antibacterial activity against Escherichia coli ATCC 25922
# Type: functional
ASSAY_ENDPOINT: MIC

>>> experimental_value("CCCCCCCCCCCCN1CCN(c2ccc3c4c(cccc24)C(=O)N(CC(O)Cn2c([N+](=O)[O-])cnc2C)C3=O)CC1 (stereo not drawn)")
"13 to 1020 µM"
>>> experimental_value("Cc1ncc([N+](=O)[O-])n1CC(O)CN1C(=O)c2cccc3c(N4CCCC4)ccc(c23)C1=O (stereo not drawn)")
"69 to 1140 µM"
>>> experimental_value("CCCCCCN1CCN(c2ccc3c4c(cccc24)C(=O)N(CC(O)Cn2c([N+](=O)[O-])cnc2C)C3=O)CC1 (stereo not drawn)")
"13 to 1020 µM"

---

Listed here are compounds together with their documented MIC.
# System: Pseudomonas aeruginosa
# ASSAY_METHOD_TEXT: Antibacterial activity against Pseudomonas aeruginosa
# Format: functional
ASSAY_ENDPOINT: MIC

>>> experimental_value("NC(=O)N/N=C/c1ccc([N+](=O)[O-])o1")
"0.25 to 0.5 µg/mL"
>>> experimental_value("CC(=O)N1N=C(Cn2c([N+](=O)[O-])cnc2C)OC1(C)c1ccccc1 (stereo not drawn)")
"0.25 to 0.5 µg/mL"
>>> experimental_value("CC(=O)N1N=C(Cn2c([N+](=O)[O-])cnc2C)OC1(C)c1ccc(Br)cc1 (stereo not drawn)")
"0.25 to 0.5 µg/mL"
>>> experimental_value("CCCCCCCCCCN1CCN(c2ccc3c4c(cccc24)C(=O)N(CC(O)Cn2c([N+](=O)[O-])cnc2C)C3=O)CC1 (stereo not drawn)")
"13 to 210 µM"
>>> experimental_value("CC(=O)N1N=C(Cn2c([N+](=O)[O-])cnc2C)OC1(C)c1ccc(C)cc1 (stereo not drawn)")
"0.25 to 0.5 µg/mL"
>>> experimental_value("CC(=O)N1N=C(Cn2c([N+](=O)[O-])cnc2C)OC1c1ccc(C)cc1 (stereo not drawn)")
"0.25 to 0.5 µg/mL"
>>> experimental_value("Cc1ncc([N+](=O)[O-])n1CCCNS(=O)(=O)c1ccc(NCc2ccc(Cl)cc2Cl)cc1")
"64 to 128 µg/mL"
>>> experimental_value("COc1ccccc1Cc1nnc(Cn2c([N+](=O)[O-])cnc2C)o1")
"3.12 to 4.56 µg/mL"
>>> experimental_value("Cc1ccc(/C=C2\\SC(=O)N(CCn3c([N+](=O)[O-])cnc3C)C2=O)cc1")
"31.2 to 500 µg/mL"
>>> experimental_value("C#CCN1CCN(c2ccc3c4c(cccc24)C(=O)N(CC(O)Cn2c([N+](=O)[O-])cnc2C)C3=O)CC1 (stereo not drawn)")
"13 to 1020 µM"
>>> experimental_value("CC(=O)N1N=C(Cn2c([N+](=O)[O-])cnc2C)OC1c1ccc([N+](=O)[O-])cc1 (stereo not drawn)")
"0.25 to 0.5 µg/mL"
>>> experimental_value("OC(Cn1cncn1)(Cn1cncn1)c1ccc(F)cc1F")
"0.25 µg/mL"
>>> experimental_value("Cc1ncc([N+](=O)[O-])n1CC(O)CN1C(=O)c2cccc3c(N4CCN(CC#N)CC4)ccc(c23)C1=O (stereo not drawn)")
"13 to 1020 µM"
>>> experimental_value("C=CCN1CCN(c2ccc3c4c(cccc24)C(=O)N(CC(O)Cn2c([N+](=O)[O-])cnc2C)C3=O)CC1 (stereo not drawn)")
"13 to 1020 µM"
>>> experimental_value("CC(=O)N1N=C(Cn2c([N+](=O)[O-])cnc2C)OC1c1ccc(Cl)cc1 (stereo not drawn)")
"0.25 to 0.5 µg/mL"
>>> experimental_value("Cc1ncc([N+](=O)[O-])n1CCN1C(=O)S/C(=C\\c2ccc(Cl)cc2)C1=O")
"31.2 to 500 µg/mL"
>>> experimental_value("NC1CCN(c2c(F)cc3c(=O)c(C(=O)O)cn(C4CC4)c3c2Cl)C1 (stereo not drawn)")
"5 to 88 µM"
>>> experimental_value("CCN1CCN(c2ccc3c4c(cccc24)C(=O)N(CC(O)Cn2c([N+](=O)[O-])cnc2C)C3=O)CC1 (stereo not drawn)")
"13 to 1020 µM"
